biological target: UniProt:P18901; assay: Displacement of [3H]-SCH 23390 from dopamine D1 receptor in rat striatal membranes after 1 hr by liquid scintillation counting analysis; format: cell membranes, Membrane; details: read-out: pKi (converted)
Sequence (P18901 whole entry): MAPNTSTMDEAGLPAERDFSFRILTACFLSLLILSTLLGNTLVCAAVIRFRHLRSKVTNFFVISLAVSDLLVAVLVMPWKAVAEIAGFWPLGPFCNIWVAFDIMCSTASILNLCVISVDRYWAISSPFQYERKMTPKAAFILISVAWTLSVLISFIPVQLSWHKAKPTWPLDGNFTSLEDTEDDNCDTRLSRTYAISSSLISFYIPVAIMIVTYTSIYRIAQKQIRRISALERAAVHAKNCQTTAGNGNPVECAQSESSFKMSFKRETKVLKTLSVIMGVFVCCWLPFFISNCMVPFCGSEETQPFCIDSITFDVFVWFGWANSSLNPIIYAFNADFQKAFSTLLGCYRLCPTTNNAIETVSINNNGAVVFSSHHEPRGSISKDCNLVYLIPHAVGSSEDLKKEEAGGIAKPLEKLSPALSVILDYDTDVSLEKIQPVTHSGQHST
Ki strictly less than 4 µM = 1. Otherwise 0.

Molecule	Label value
Oc1ccc2c(c1)CC1c3cc4c(cc3CCN1C2)OCO4 (centres undefined)	0

Record COc1ccc2c(c1)CC1c3cc4c(cc3CCN1C2)OCO4 (centres undefined) : is its Ki strictly below 4 µM?
1

Record COc1cc2c(cc1OC)C1Cc3cccc(OC)c3CN1CC2 (centres undefined) : is its Ki strictly below 4 µM?
1

Record Oc1ccc2c(c1)CC1c3cc(O)c(O)cc3CCN1C2 (centres undefined) : is its Ki strictly below 4 µM?
1

Record COc1ccc2c(c1)CC1c3cc(OC)c(OC)cc3CCN1C2 (centres undefined) : is its Ki strictly below 4 µM?
0

Record COc1ccc2c(c1)CC1c3cc(OC)c(Cl)cc3CCN1C2 (centres undefined) : is its Ki strictly below 4 µM?
1

Record Oc1cccc2c1CN1CCc3cc4c(cc3C1C2)OCO4 (centres undefined) : is its Ki strictly below 4 µM?
1

Record COc1ccc2c(c1)CC1c3cc(O)c(O)cc3CCN1C2 (centres undefined) : is its Ki strictly below 4 µM?
1

Record Oc1cc2c(cc1O)C1Cc3cccc(O)c3CN1CC2 (centres undefined) : is its Ki strictly below 4 µM?
1
